Cited source for all entries: the supplement of paper PMC11061612

system: NCI-H446 (Small Cell Lung Carcinoma); assay: combination Emax (second highest fraction inhibited in the dose matrix, 72 h); higher = more inhibition; extreme values may be limits of the assay
# cutoff 0.9 applies to combination Emax; >= gives YES, < gives NO

| compound | test-system | qualitative-label |
| --- | --- | --- |
| COc1cccc(OCCCN)c1-c1cc(Nc2cnc(C#N)cn2)n[nH]1 [Prexasertib] + CCc1c2c(nc3ccc(O)cc13)-c1cc3c(c(=O)n1C2)COC(=O)[C@]3(O)CC [SN-38] (first compound max 1 µM, 7x7, partner max 0.3 µM) | NCI-H446 (Small Cell Lung Carcinoma) | YES |
| CN(C)CCCOc1ccc(-c2ccc3ncc4c(c3c2)n(C2CCOCC2)c(=O)n4C)cn1 [AZD0156] + CCN(CCO)CCCOc1ccc2c(Nc3cc(CC(=O)Nc4cccc(F)c4)[nH]n3)ncnc2c1 [AZD2811] (first compound max 1 µM, 7x7, partner max 1 µM) | NCI-H446 (Small Cell Lung Carcinoma) | NO |
| NC1(C(=O)N[C@@H](CCO)c2ccc(Cl)cc2)CCN(c2ncnc3[nH]ccc23)CC1 [Capivasertib] + COc1nnc2ccc(N3CCC(c4ccc(OCCN5CCN(C)C(=O)[C@H]5C)cc4)CC3)nn12 [AZD5153] (first compound max 10 µM, 7x7, partner max 1 µM) | NCI-H446 (Small Cell Lung Carcinoma) | YES |
| COc1cccc(OCCCN)c1-c1cc(Nc2cnc(C#N)cn2)n[nH]1 [Prexasertib] + Cc1cc2ncnn2cc1Nc1ncc2c(n1)n(C1CCOCC1)c(=O)n2C [AZD7648] (first compound max 1 µM, 7x7, partner max 10 µM) | NCI-H446 (Small Cell Lung Carcinoma) | YES |
| NC1(C(=O)N[C@@H](CCO)c2ccc(Cl)cc2)CCN(c2ncnc3[nH]ccc23)CC1 [Capivasertib] + CC(C)n1c(=O)n(C)c2cnc3cc(F)c(-c4ccc(OCCCN5CCCCC5)nc4)cc3c21 [AZD1390] (first compound max 10 µM, 7x7, partner max 0.3 µM) | NCI-H446 (Small Cell Lung Carcinoma) | NO |

Let's switch to this compound now.
**Query** Could you please find out whether CCc1c2c(nc3ccc(O)cc13)-c1cc3c(c(=O)n1C2)COC(=O)[C@]3(O)CC [SN-38] + CN(C)CCCOc1ccc(-c2ccc3ncc4c(c3c2)n(C2CCOCC2)c(=O)n4C)cn1 [AZD0156] (first compound max 0.3 µM, 7x7, partner max 1 µM) has combination Emax that meets 0.9 or exceeds it?
**Result** NO
